target: human IRAK4 FL (Full Length) (Homo sapiens (Human), UniProt Q9NWZ3); experiment: IRAK4 Enzymatic DELFIA Assay, Protocol A; conditions: 0.6 mM ATP (KM)
Sequence (Q9NWZ3 whole entry): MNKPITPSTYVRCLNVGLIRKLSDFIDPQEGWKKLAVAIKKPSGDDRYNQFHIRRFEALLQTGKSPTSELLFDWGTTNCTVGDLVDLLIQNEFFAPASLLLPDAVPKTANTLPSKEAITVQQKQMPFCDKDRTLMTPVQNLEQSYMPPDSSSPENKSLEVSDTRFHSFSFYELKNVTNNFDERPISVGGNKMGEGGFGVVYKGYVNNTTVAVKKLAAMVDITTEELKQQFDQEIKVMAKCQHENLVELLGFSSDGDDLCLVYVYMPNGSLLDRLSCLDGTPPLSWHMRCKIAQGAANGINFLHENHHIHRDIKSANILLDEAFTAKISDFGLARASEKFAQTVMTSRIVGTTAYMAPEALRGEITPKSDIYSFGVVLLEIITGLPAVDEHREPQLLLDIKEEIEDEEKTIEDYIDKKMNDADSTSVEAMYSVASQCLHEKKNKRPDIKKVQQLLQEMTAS

compound.structure.string: CC(C)Oc1cc2c(OC[C@@H]3C[C@@H](C4(O)COC4)C(=O)N3)nccc2cc1C(N)=O
IC50 (nM): 238
